- assay.target: unphosphorylated-BTK kinase domain (UP-BTK), GST-tagged human BTK (389-659aa) (Homo sapiens (Human))
- Sequence (Q06187 389-659): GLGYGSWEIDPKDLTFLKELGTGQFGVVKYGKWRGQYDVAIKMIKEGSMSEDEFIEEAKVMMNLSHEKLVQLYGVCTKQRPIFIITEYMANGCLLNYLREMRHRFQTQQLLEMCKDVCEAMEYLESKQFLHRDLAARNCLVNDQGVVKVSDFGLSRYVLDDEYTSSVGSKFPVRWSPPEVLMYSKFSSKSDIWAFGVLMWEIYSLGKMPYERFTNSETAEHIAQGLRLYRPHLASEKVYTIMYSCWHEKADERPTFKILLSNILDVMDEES
- assay.overview: BTK kinase Lanthascreen binding assay
- experimental.conditions: Lanthascreen tracer competition, 60 minutes incubation; pIC50 = negative log of the IC50 in molar
API: label(entry) gives T if the entry's BTK_I_binding pIC50 is strictly smaller than 6; on equality or larger values it gives F.

Study these solved cases before continuing.
molecule | assigned.class
CNCC(=O)N1CCC[C@@H](NC(=O)c2sc3nccc4c3c2NC(=O)N4c2ccnc(-c3ccccc3)c2)C1 | F
O=C(N[C@@H]1CCCNC1)c1sc2nccc3c2c1NC(=O)N3c1ccc(OC2CCC2)nc1 | T
Cc1cc(OC(C)C)ncc1N1C(=O)Nc2c(C(=O)N[C@@H]3CCCNC3)sc3nccc1c23 (single isomer, unassigned) [Example 794] | F
O=C(N[C@@H]1CCCNC1)c1sc2nccc3c2c1NC(=O)N3c1cccc(C2CCOCC2)c1 | T
C=CC(=O)N1CC[C@H](NC(=O)c2sc3nccc4c3c2NC(=O)N4c2ccc(Oc3ccccc3)cc2C)C1 | F

Consider now this further molecule.
Hi there! Is BTK_I_binding pIC50 for C=CC(=O)N1CC[C@@H](NC(=O)c2sc3nccc4c3c2NC(=O)N4c2ccc(Oc3cccnn3)cc2C)C1 below 6, do you know?
F

Origin of measurements: patent US10800792B2
